Examples of binders with documented EC50 follow.
# targetDesc: T1, human SLITRK6 on cells (human, UniProt Q9H5Y7 27-841)
# T1 construct: whole, on cells
# experimentDescription: flow cytometry on CHP-212 cells
reportedMetric: EC50 (nM)

{"columns": ["binder", "experimentalValue"],
 "data": [
  ["hu1H2-13 (antibody, V domains shown) VH: EVQLVESGGGLVQPGGSLRLSCAASGFTFSDYGLHWVRQAPGKGLEWVAYISSGSSTVYFADTLKGRFTISRDNAKNSLYLQMNSLRAEDTAVYYCTRGTWYFDVWGRGTLVTVSS VL: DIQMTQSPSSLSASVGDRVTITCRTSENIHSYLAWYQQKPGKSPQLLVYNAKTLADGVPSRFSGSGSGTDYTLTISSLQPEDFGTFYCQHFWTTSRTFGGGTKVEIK", 0.22],
  ["hu14G1-03-LD038 (8) (antibody, V domains shown, drug-linker LD038 on cysteines freed by TCEP reduction, DAR 8.0; positions not given, also called hu14G1-03 ADC) VH: EVQLVESGGGLVQPGGSLRLSCAASGFTFSDYGMHWVRQAPGKGLEWVSYISPGSSTIYYADTMKGRFTISRDNAKNSLYLQMNSLRAEDTAVYYCARAYGGSYWYFAVWGQGTLVTVSS VL: DIQMTQSPSSLSASVGDRVTITCRASGNIHSYLAWYQQKPGKSPQLLVYNAKTLADGVPSRFSGSGSGTDYTLTISSLQPEDFGTYYCQHFWSTPYTFGGGTKLEIK", 0.65],
  ["hu1H2-03 (antibody, V domains shown, see m20) VH: EVQLVESGGGLVQPGGSLRLSCAASGFTFSDYGLHWVRQAPGKGLEWVSYISSGSSTVYFADTLKGRFTISRDNAKNSLYLQMNSLRAEDTAVYYCTRGTWYFDVWGRGTLVTVSS VL: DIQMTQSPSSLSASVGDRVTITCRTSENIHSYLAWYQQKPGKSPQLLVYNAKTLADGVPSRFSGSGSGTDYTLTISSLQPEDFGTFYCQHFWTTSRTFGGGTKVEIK", 0.24],
  ["phA108 (antibody, V domains shown, From phage display, then full-length construction; Only the variable regions are tied to the name) VH: QVQLVQSGAEVKKPGASVKVSCTASGYIFNDYYLHWVRQAPGQGLEWVGIINPSGGSPVYAQKFQGRVTMTRDTSTNTVYMELSSLRSEDTAVYYCARGMVRGVRLFDYWGQGTLVTVSA VL: EIVLTQSPATLSLSPGERATLSCRASQSVSSYLAWYQQKPGQTPRLLIYDASNRATGVPARFSGSGSGTDFTLTISSLETEDFAVYYCQQRTNWPLTFGGGTKVEIK", 0.14]
]}
